Listed here: items and their measured IC50.
TESTED_TARGET: MAO-A (Homo sapiens, UniProt P21397)
Sequence (P21397 whole entry, species assumed): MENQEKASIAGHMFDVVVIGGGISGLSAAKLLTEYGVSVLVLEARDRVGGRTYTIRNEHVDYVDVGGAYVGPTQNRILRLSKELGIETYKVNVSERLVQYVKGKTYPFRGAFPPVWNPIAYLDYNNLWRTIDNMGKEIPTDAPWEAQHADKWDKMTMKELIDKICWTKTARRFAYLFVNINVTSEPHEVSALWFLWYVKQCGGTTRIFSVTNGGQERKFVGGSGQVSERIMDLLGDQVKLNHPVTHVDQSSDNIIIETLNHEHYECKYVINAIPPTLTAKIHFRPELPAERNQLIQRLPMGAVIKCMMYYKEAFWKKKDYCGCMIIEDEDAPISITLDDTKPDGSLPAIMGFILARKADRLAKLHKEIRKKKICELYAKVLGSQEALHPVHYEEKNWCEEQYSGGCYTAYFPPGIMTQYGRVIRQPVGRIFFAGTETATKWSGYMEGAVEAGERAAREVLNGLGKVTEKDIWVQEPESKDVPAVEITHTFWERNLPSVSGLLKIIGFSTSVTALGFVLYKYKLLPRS

Solved entries (count: 2):
COMPOUND: C[C@H](NCc1ccc(-c2cccc(OC(F)(F)F)c2)cc1)C(N)=O [Example 10, methanesulfonate]
IC50: > 100 µM
//
COMPOUND: C[C@@H](NCc1ccc(-c2cccc(F)c2)cc1)C(N)=O [Example 14, methanesulfonate]
IC50: > 100 µM

The record that follows has no IC50 shown yet.
[ask] Please give the measured IC50 for this compound: C[C@H](NCc1ccc(-c2cccc(Cl)c2)cc1)C(N)=O [Example 5]
[reply] > 100 µM
